Assay: In vivo PK evaluation in mice (blood, LC-MS/MS, non-compartmental analysis)
Design: species or system male C57BL/6 mice
Settings: male, C57BL/6, whole blood, other: oral and IV (range over both); range over oral (50 and 10 mg/kg) and IV (5 mg/kg) groups, mouse; read-out: mean half-life
reported.metric: half-life

1) Oc1cc(CCCc2ccc(F)cc2)ccc1CN1CCCCC1 3.1 to 4.4 h
